- subject_of_test: recombinant human Cathepsin K (Homo sapiens (Human), UniProt P43235)
- Sequence (P43235 115-329): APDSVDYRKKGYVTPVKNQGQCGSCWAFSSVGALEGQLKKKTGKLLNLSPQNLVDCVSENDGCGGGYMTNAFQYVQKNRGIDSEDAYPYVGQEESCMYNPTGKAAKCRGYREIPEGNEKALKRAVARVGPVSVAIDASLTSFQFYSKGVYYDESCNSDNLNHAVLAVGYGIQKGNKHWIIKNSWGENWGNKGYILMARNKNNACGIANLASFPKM
- protocol_notes: Inhibition of human Cathepsin K
- condition_set: substrate Z-Gly-Pro-Arg-AMC
Provide the reported IC50 of each item.
Answers are plain numbers, in µM.

[[record]]
compound = "N#C[C@H](Cc1ccc(N2CCN3CCC[C@H]3C2)cc1F)NC(=O)[C@H]1N[C@@H]2CC[C@H]1C2 [Example 270]"
observation_type = "IC50"
endpoint_value = 6.1

[[record]]
compound = "CN1CCC(Oc2ccc(C[C@@H](C#N)NC(=O)[C@H]3N[C@@H]4CC[C@H]3C4)c(F)c2)CC1 [Example 319]"
observation_type = "IC50"
endpoint_value = 4.5

[[record]]
compound = "CS(=O)(=O)c1ccc(-c2ccc(C[C@@H](C#N)NC(=O)[C@H]3N[C@@H]4CC[C@H]3C4)c(F)c2)cc1OCC(F)F [Example 252]"
observation_type = "IC50"
endpoint_value = 3.3

[[record]]
compound = "N#C[C@H](Cc1ccc(-n2cc(-c3ccc4occc4c3)nn2)cc1F)NC(=O)[C@H]1N[C@@H]2CC[C@H]1C2 [Example 84]"
observation_type = "IC50"
endpoint_value = 4.9

[[record]]
compound = "N#C[C@H](Cc1ccc(-c2cc(C(N)=O)co2)cc1F)NC(=O)[C@H]1N[C@@H]2CC[C@H]1C2 [Example 239]"
observation_type = "IC50"
endpoint_value = 2

[[record]]
compound = "N#C[C@H](Cc1ccc(-c2cnc(N3CCOCC3)s2)cc1F)NC(=O)[C@H]1N[C@@H]2CC[C@H]1C2 [Example 59]"
observation_type = "IC50"
endpoint_value = 2.5


Give measured IC50 for every item shown.
1. COCCN1CCN(C(=O)c2cc(-c3ccc(C[C@@H](C#N)NC(=O)[C@H]4N[C@@H]5CC[C@H]4C5)c(F)c3)cs2)CC1 [Example 228]
2. N#C[C@H](Cc1ccc(-n2cc(COC(=O)N3CCCC3)nn2)cc1F)NC(=O)[C@H]1N[C@@H]2CC[C@H]1C2 [Example 106]
3. CCNC(=O)c1coc(-c2ccc(C[C@@H](C#N)NC(=O)[C@H]3N[C@@H]4CC[C@H]3C4)c(F)c2)c1 [Example 242]
4. N#C[C@H](Cc1ccc(-c2csc(C(=O)N3CCOCC3)c2)cc1F)NC(=O)[C@H]1N[C@@H]2CC[C@H]1C2 [Example 230]
5. N#C[C@H](Cc1ccc(-c2ccc3c(c2)NC(=O)C3)cc1F)NC(=O)[C@H]1N[C@@H]2CC[C@H]1C2 [Example 29]
6. CS(=O)(=O)c1cc(OCC(F)(F)F)cc(-c2ccc(C[C@@H](C#N)NC(=O)[C@H]3N[C@@H]4CC[C@H]3C4)c(F)c2)c1 [Example 276]

Reply |
2
5.3
2.5
5.9
1.4
5.5
